Tested on: EGFR (human), P00533 [G719S]
assay.info: KINOMEscan competition binding
assay.context: compound 10.0 µM
So basically, if kinase still bound, per cent of control comes in under 90% it's condition met, and if it's 90% or more it's condition not met.

| compound | test.system | label |
| --- | --- | --- |
| CC1=C(C(=O)Nc2cc3cn[nH]c3cc2F)C(c2ccc(C(F)(F)F)cc2)CC(=O)N1 (stereo not given) | EGFR (human), P00533 [G719S] | condition met |
| COc1cc2ncnc(Nc3cccc(Cl)c3)c2cc1OC | EGFR (human), P00533 [G719S] | condition met |
| CCOc1cc(N2CCC(O)CC2)ccc1Nc1ncc2c(n1)N(C)c1ccccc1C(=O)N2C | EGFR (human), P00533 [G719S] | condition not met |
| O=C(NC1CC1)c1cccc(-c2ccc3c(NC(=O)C4CC4)n[nH]c3c2)c1 | EGFR (human), P00533 [G719S] | condition met |
